- Tested on: SGK-1 dependent phosphorylation of GSK3beta in U2OS cells
- test.method.notes: SGK-1 dependent phosphorylation of GSK3beta in U2OS cells overexpressing recombinant SGK-1 and GSK3beta
- Format: cell-based, human
- condition.details: U2OS cells, 6 h incubation, ratio of phosphorylated GSK3beta to total GSK3beta; read-out: IC50 values for inhibition of SGK-1 dependent phosphorylation of GSK3beta in U2OS cells
# key: entry, value: pIC50
pIC50 here is simply -log10 of the concentration when that concentration is written in mol/L.

Exam item: Can you look up the measured pIC50 of O=S(=O)(Nc1ccc(-c2nc(OCC3CNC3)c3cn[nH]c3n2)cc1)c1cc(Cl)ccc1F for me?
Marked response: 6.29

Exam item: Using the record for O=S(=O)(Nc1ccc(-c2nc(OC3CNC3)c3cn[nH]c3n2)cc1)c1cc(Cl)ccc1Cl , report its pIC50.
Marked response: 6.92

Exam item: Recorded pIC50 for Cc1nc(-c2ccc(NS(=O)(=O)c3cc(F)c(F)c(F)c3)cc2)nc2[nH]nc(N)c12 , please?
Marked response: 6.01

The reported numbers originate from patent US9718825B2.
